The values you see were collected from paper PMC5540273.

- System: TRKB
- CONDITION SET: concentration: 1 μM, replicates: in singlicate; n = 1;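 also: KINOMEscan kinase panel screen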
Cut-off 30% on %Inh: below means met, at or above means not met.

Answered examples (5):
[
  {
    "COMPOUND": "CN(c1ccc2c(c1)nc(NCc1ccccc1)n2C)c1ccnc(Nc2ccc(CS(C)(=O)=O)cc2)n1.Cl",
    "CATEGORY LABEL": "not met"
  },
  {
    "COMPOUND": "Cl.Cl.NCC(NC(=O)c1cc(-c2cccnc2)c(-c2ccnc3[nH]ccc23)s1)c1ccccc1 (centres unmarked)",
    "CATEGORY LABEL": "not met"
  },
  {
    "COMPOUND": "Cc1ccc(O)cc1Nc1ccnc2ccc(C(C)(C)C)cc12",
    "CATEGORY LABEL": "not met"
  },
  {
    "COMPOUND": "CCOc1nccc(-c2c(-c3ccc(F)cc3)ncn2C2CCNCC2)n1",
    "CATEGORY LABEL": "met"
  },
  {
    "COMPOUND": "CC(=O)Nc1cn2nc(Oc3cccc(NC(=O)c4cccc(C(F)(F)F)c4)c3)ccc2n1",
    "CATEGORY LABEL": "met"
  }
]

Q: Hello, is %Inh of the following compound strictly smaller than 30%? O=C(Nc1n[nH]c2nc(-c3ccccc3)ccc12)C1CC1
A: met

Q: Confirm or reject: %Inh of N#CC1(c2cccc(C(=O)Nc3cccc(Oc4ccc5nc(NC(=O)C6CC6)sc5n4)c3)c2)CC1 lies strictly below 30%
A: met

Q: Would you kindly verify if %Inh of COc1ccc(NC(=O)c2ccoc2)cc1-c1ccc(C(=O)NCC2CC2)cc1 is strictly less than 30%?
A: met

----------
- Tested on: CDK9
- CONDITION SET: concentration: 1 μM, replicates: in singlicate; n = 1
QUANTITY NAME: %Inh

The cases that follow already have their %Inh on record.
[
  {
    "COMPOUND": "CCNC(=O)/C=C/c1n[nH]c2cc(Sc3ccccc3C(=O)NC)ccc12",
    "QUANTITY NAME": "%Inh",
    "OBS VALUE": "13%"
  },
  {
    "COMPOUND": "COC(=O)Nc1nc2ccc(Oc3ccc(NC(=O)Nc4cc(C(F)(F)F)ccc4F)cc3)cc2[nH]1.Cl",
    "QUANTITY NAME": "%Inh",
    "OBS VALUE": "0%"
  },
  {
    "COMPOUND": "Cl.Cl.NC(CNC(=O)c1cc(Br)c(-c2ccnc3[nH]ccc23)s1)c1ccccc1 (stereo not shown)",
    "QUANTITY NAME": "%Inh",
    "OBS VALUE": "15%"
  }
]

Value of measured %Inh for the entry COc1ccc(C)c(Nc2ccnc(Nc3ccc(-c4cnc[nH]4)cc3)n2)c1.Cl : 0%

----------
Here, each record is paired with measured %Inh data.
- Tested on: NEK10
- CONDITION SET: concentration: 1 μM, replicates: in singlicate; n = 1
Record the value in %, omitting the unit from your answer.

Here is how some compounds turned out for %Inh.
[
  {
    "COMPOUND": "CN(C)CCNS(=O)(=O)c1ccc(-c2ccnc3[nH]ccc23)cc1",
    "OBS VALUE": 17
  },
  {
    "COMPOUND": "COC(=O)Nc1nc2ccc(Oc3ccc(NC(=O)Nc4cc(C(F)(F)F)ccc4F)cc3)cc2[nH]1.Cl",
    "OBS VALUE": 21
  },
  {
    "COMPOUND": "CC(C)c1nc(-c2cccc(NS(=O)(=O)c3c(F)cccc3F)c2)c(-c2ccnc(Nc3ccc(N4CCOCC4)nc3)n2)s1.Cl",
    "OBS VALUE": 9
  }
]

%Inh recorded for this compound, O=C(Nc1c(F)cccc1F)c1cc(C(=O)c2ccccc2F)c[nH]1 , is 9

// sample Cl.O=C(Nc1ccc(Oc2ccc3[nH]c(NC(=O)c4ccco4)nc3c2)cc1)Nc1cc(C(F)(F)F)ccc1F , its %Inh was 0

Lab book: %Inh of CN1CCN(Cc2ccc(NC(=O)Nc3ccc(N(C)c4ccnc(Nc5ccc(CS(C)(=O)=O)cc5)n4)cc3)cc2)CC1.Cl noted as 28

Record summary for COc1ccc(NC(=O)c2ccoc2)cc1-c1ccc(C(=O)NCC2CC2)cc1 : reported %Inh = 16

Looking up Cl.Cl.NC(CNC(=O)c1cc(Br)c(-c2ccnc3[nH]ccc23)s1)c1ccccc1 (centres unmarked) , I see its %Inh listed as 1
